- tgt: T1, HCoV-OC43 spike antigens (bead panel) (HCoV-OC43, UniProt P36334 14-1297)
- T1 sequence: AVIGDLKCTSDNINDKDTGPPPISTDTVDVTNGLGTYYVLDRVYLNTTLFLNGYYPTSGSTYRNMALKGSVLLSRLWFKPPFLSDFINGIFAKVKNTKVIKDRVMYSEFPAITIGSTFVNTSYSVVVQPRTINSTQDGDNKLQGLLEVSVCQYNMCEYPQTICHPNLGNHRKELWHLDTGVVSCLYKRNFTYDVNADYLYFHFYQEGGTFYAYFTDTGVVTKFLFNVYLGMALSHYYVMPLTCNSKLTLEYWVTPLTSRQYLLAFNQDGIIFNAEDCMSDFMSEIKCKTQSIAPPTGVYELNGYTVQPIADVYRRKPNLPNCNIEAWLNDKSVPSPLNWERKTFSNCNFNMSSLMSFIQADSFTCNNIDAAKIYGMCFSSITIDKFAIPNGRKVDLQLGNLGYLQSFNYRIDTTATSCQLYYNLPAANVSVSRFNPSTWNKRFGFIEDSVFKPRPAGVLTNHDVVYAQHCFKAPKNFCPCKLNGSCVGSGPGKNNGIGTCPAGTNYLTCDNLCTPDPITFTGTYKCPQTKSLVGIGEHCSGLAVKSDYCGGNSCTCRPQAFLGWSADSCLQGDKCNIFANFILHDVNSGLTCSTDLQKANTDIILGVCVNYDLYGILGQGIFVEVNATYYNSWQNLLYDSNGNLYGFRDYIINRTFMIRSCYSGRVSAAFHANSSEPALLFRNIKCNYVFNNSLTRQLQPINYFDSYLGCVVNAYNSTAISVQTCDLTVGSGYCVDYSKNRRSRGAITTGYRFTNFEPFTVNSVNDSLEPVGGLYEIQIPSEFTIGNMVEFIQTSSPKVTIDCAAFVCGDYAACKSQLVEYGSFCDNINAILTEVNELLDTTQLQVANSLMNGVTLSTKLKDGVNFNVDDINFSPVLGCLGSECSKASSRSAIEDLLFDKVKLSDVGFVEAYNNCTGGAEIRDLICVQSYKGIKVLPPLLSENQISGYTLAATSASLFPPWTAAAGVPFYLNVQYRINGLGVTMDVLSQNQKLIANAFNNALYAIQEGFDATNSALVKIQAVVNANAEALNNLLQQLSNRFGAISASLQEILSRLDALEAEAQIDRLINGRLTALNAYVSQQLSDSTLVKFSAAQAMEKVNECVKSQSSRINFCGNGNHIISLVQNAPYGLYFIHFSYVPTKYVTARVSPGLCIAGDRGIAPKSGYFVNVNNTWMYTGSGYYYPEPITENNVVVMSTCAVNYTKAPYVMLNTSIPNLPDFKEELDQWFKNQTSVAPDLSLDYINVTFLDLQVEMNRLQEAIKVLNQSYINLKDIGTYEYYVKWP
- assay_method_text: multiplex bead assay
recorded_metric: binding result

{"columns": ["binder", "meas_value"],
 "data": [
  ["COV_2103 (antibody, V domains shown, human IgG1) VH: EVQLVESGGGVVQPGRSLRLSCGASGFTFSSYGIHWVRQAPGKGLDWVAVIWHDGSQKYYGDSVKGRFTISRDNSKNTLYLQMNRLRAEDTAVYYCARDSGDDYDSSGYPIGNAFDLWGQGTMVTVSS VL: DIQMTQSPSTLSASVGDRVTITCRASQFINSWLAWYQQKPGKAPKLLIYKASSLETGVPSRFSGSGSGTEFTLTISSLQPDDFATYYCQQYNTYSFTFGPGTKVDIK", "no binding"],
  ["COV_1145 (antibody, V domains shown, human IgG1) VH: QVQLVESGGGVVQPGRSLRLSCAASGFTFSSYGMHWVRQAPGKGLEWVAVIWYDGSNKYYADSVKGRFTISRDNSKNTLYLQMNSLRVEDTAVYYCAREGQLGATGLDCWGQGTLVSVSS VL: SYELTQPPSVSVSPGQTARITCSGDALPKKYAYWYQQKSGQAPVLVIYEDSKRPSGIPERFSGSSSGTMATLTISGAQVEDEADYYCYSTDNSGNHWVFGGGTKLTVLG", "no binding"],
  ["COV_2035 (antibody, V domains shown, human IgG1) VH: QVQLVQSGAEVKKPGASVKVSCKVSGYTLPELSIHWVRQAPGKGLEWLGGFDPEDGKIIYAQKFQGRVTMTEDTSTDTAYMELSSLRSEDTAVYYCATSPAVVERGWFDPWGQGTLVTVSS VL: QSALTQPPSASGSPGQSVTISCTGTSSDVGGYNYVSWYQQHPGKAPKLMIYEVSKRPSGVPDRFSGSKSGNMASLTVSGLQAEDEANYYCSSYAGSKRVFGGGTKLTVL", "no binding"]
]}

Data provenance is patent US20240101645A1.
